Recorded IC50 by entry
Target: human CXCR6 (Homo sapiens, UniProt O00574)
Sequence (O00574 whole entry): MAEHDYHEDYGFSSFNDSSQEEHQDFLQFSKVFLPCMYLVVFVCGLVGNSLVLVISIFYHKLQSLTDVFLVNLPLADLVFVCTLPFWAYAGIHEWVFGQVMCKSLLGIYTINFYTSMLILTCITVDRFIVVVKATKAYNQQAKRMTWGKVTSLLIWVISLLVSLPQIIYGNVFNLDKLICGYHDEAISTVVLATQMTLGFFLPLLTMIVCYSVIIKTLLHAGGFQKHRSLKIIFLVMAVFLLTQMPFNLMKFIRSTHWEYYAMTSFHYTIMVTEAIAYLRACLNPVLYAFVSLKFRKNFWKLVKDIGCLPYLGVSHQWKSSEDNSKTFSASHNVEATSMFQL

Sample records with IC50:
>  <Molecule>
CCOc1cc(NC(=O)[C@@H](O)C(C)C)ccc1S(=O)(=O)Nc1ccc(C2CC2)c(OC(F)(F)F)c1

>  <Target or system>
human CXCR6 (Homo sapiens, UniProt O00574)

>  <IC50>
≤ 200 nM

$$$$
>  <Molecule>
Cc1cc(NC(=O)c2c(C)noc2C)ccc1S(=O)(=O)Nc1cccc(C(F)(F)F)c1

>  <Target or system>
human CXCR6 (Homo sapiens, UniProt O00574)

>  <IC50>
2000 to 20000 nM

$$$$
>  <Molecule>
COc1cc(NC(=O)C2CCC(O)CC2)ccc1S(=O)(=O)Nc1cccc(C(F)(F)F)c1 (stereo not drawn)

>  <Target or system>
human CXCR6 (Homo sapiens, UniProt O00574)

>  <IC50>
2000 to 20000 nM

$$$$
>  <Molecule>
CCOc1cc(NC(=O)[C@H]2CCCC[C@@H]2O)ccc1S(=O)(=O)Nc1cccc(OC(F)(F)F)c1

>  <Target or system>
human CXCR6 (Homo sapiens, UniProt O00574)

>  <IC50>
750 to 2000 nM

$$$$
>  <Molecule>
CCOc1cc(NC(=O)[C@H]2CC[C@@](C)(O)CC2)ccc1S(=O)(=O)Nc1cccc(OC(F)(F)F)c1

>  <Target or system>
human CXCR6 (Homo sapiens, UniProt O00574)

>  <IC50>
2000 to 20000 nM

$$$$
>  <Molecule>
CCOc1cc(NC(=O)[C@@H](NS(C)(=O)=O)C(C)C)ccc1S(=O)(=O)Nc1cccc(OC(F)(F)F)c1

>  <Target or system>
human CXCR6 (Homo sapiens, UniProt O00574)

>  <IC50>
≤ 200 nM

$$$$
>  <Molecule>
COc1cc(NC(=O)c2ccnn2C)ccc1S(=O)(=O)Nc1cc(C(F)(F)F)cc(C(F)(F)F)c1

>  <Target or system>
human CXCR6 (Homo sapiens, UniProt O00574)

>  <IC50>
2000 to 20000 nM

$$$$
>  <Molecule>
Cc1cc(NC(=O)c2ccnnc2)ccc1S(=O)(=O)Nc1cccc(C(F)(F)F)c1

>  <Target or system>
human CXCR6 (Homo sapiens, UniProt O00574)

>  <IC50>
750 to 2000 nM

$$$$

Request: Can you share its IC50? I mean this molecule: CCOCCOCCC(C(=O)O)C(=O)Nc1ccc(S(=O)(=O)Nc2cccc(OC(F)(F)F)c2)c(OCC)c1 (stereo not drawn)
Result: 200 to 750 nM

* * *

Molecular target: human CXCR6 (Homo sapiens)
The following compounds are listed with their measured IC50 values.

Answered examples (8):
>  <Compound>
CCOc1cc(NC(=O)c2ccc(N)nc2)ccc1S(=O)(=O)Nc1cccc(OC(F)(F)F)c1 [Example 1.326]

>  <Observable>
IC50

>  <Experimental value>
≤ 200 nM

$$$$
>  <Compound>
COCc1cc(NC(=O)[C@@H](CO)c2ccccc2)ccc1S(=O)(=O)Nc1cccc(OC(F)(F)F)c1 [Example 1.143]

>  <Observable>
IC50

>  <Experimental value>
≤ 200 nM

$$$$
>  <Compound>
CC(C)c1cc(NC(=O)c2ccnn2C)ccc1S(=O)(=O)Nc1cccc(OC(F)(F)F)c1 [Example 1.456]

>  <Observable>
IC50

>  <Experimental value>
200 to 750 nM

$$$$
>  <Compound>
CCOc1cc(NC(=O)[C@@H](NC=O)C(C)C)ccc1S(=O)(=O)Nc1cccc(OC(F)(F)F)c1 [Example 1.298]

>  <Observable>
IC50

>  <Experimental value>
≤ 200 nM

$$$$
>  <Compound>
CCOc1cc(NC(=O)[C@@H](O)C(C)C)ccc1S(=O)(=O)Nc1ccc(C)c(F)c1 [Example 1.195]

>  <Observable>
IC50

>  <Experimental value>
200 to 750 nM

$$$$
>  <Compound>
CCOc1cc(NC(=O)[C@@H](CO)C(C)C)ccc1S(=O)(=O)Nc1ccc(C)c(C(F)(F)F)c1 [Example 1.102]

>  <Observable>
IC50

>  <Experimental value>
≤ 200 nM

$$$$
>  <Compound>
COCC(=O)Nc1ccc(S(=O)(=O)Nc2cccc(C(F)(F)F)c2)c(C)c1 [Example 1.544]

>  <Observable>
IC50

>  <Experimental value>
2000 to 20000 nM

$$$$
>  <Compound>
CCOc1cc(NC(=O)c2ccc(OC)cc2)ccc1S(=O)(=O)Nc1cccc(OC(F)(F)F)c1 [Example 1.568]

>  <Observable>
IC50

>  <Experimental value>
750 to 2000 nM

$$$$

Request: May I ask what IC50 has been recorded for CCOc1cc(NC(=O)[C@@H](CO)c2ccccc2)ccc1S(=O)(=O)Nc1cccc(Cl)c1C(F)(F)F [Example 1.350] ?
Result: 2000 to 20000 nM

Request: Value lookup for IC50; key = Cc1cc(NC(=O)c2ccccc2)ccc1S(=O)(=O)Nc1cccc(C(F)(F)F)c1 [Example 1.447]
Result: 200 to 750 nM

Request: Fill in the blank: the reported IC50 of CCN[C@H](C(=O)Nc1ccc(S(=O)(=O)Nc2ccc(C)c(OC(F)(F)F)c2)c(OCC)c1)C(C)C [Example 1.296] is ____.
Result: ≤ 200 nM

Request: Could you share which IC50 value was measured for CCOc1cc(NC(=O)[C@@H](O)C(C)C)ccc1S(=O)(=O)Nc1cccc(OC(F)(F)F)c1C [Example 1.267] ?
Result: 2000 to 20000 nM

Request: Find the recorded IC50 belonging to CCOc1cc(NC(=O)[C@H]2CCOC[C@H]2O)ccc1S(=O)(=O)Nc1cccc(OC(F)(F)F)c1 (racemic) [Example 1.107] and report it.
Result: 200 to 750 nM

Request: For the compound CCOc1cc(NC(=O)[C@@H](N)C2CC2)ccc1S(=O)(=O)Nc1cccc(OC(F)(F)F)c1 [Example 1.393] , what IC50 is on record?
Result: ≤ 200 nM

Request: Report IC50 for CCOc1cc(NC(=O)CC(O)C2CCOCC2)ccc1S(=O)(=O)Nc1cccc(OC(F)(F)F)c1 (centres unmarked) [Example 1.401] please.
Result: 200 to 750 nM

Request: Name the reported IC50 value associated with the compound CCOc1cc(NC(=O)[C@@H](O)C(C)C)ccc1S(=O)(=O)Nc1cccc(C(C)(C)C)c1 [Example 1.277]
Result: 200 to 750 nM

Request: Can you look up the measured IC50 of CCOc1cc(NC(=O)[C@@H](CO)C2CC2)ccc1S(=O)(=O)Nc1cccc(C(C)(C)C)c1 [Example 1.516] for me?
Result: 200 to 750 nM

Request: # IC50 lookup, item CC(C)[C@H](O)C(=O)Nc1ccc(S(=O)(=O)Nc2cccc(OC(F)(F)F)c2)c(OC(F)(F)F)c1 [Example 1.134]
Result: 200 to 750 nM

Request: What IC50 value was documented for this compound, CCOc1cc(NC(=O)C(CO)CC2CC=CCC2)ccc1S(=O)(=O)Nc1cccc(OC(F)(F)F)c1 (centres unmarked) [Example 1.428] ?
Result: ≤ 200 nM

Request: Reported IC50, compound COc1cc(NC(=O)[C@@H](CO)C(C)C)ccc1S(=O)(=O)Nc1ccc(C)c(OC(F)(F)F)c1 [Example 1.191] : ____
Result: ≤ 200 nM

Request: Entry CCOc1cc(NC(=O)[C@@H](CO)C(C)C)ccc1S(=O)(=O)Nc1cccc(C(F)(F)F)c1 [Example 1.062] : reported IC50 = ?
Result: ≤ 200 nM

Request: Which IC50 is reported for this compound? Cc1cc(NC(=O)[C@@H]2CCCN2C(=O)OC(C)(C)C)ccc1S(=O)(=O)Nc1cccc(C(F)(F)F)c1 [Example 1.012]
Result: 2000 to 20000 nM

Request: # input compound: CCOc1cc(NC(=O)[C@@H](CO)c2ccccc2)ccc1S(=O)(=O)Nc1cccc(OC(F)(F)F)c1C [Example 1.274] ; wanted: its IC50
Result: 2000 to 20000 nM

Request: Name the recorded IC50 for CCOc1cc(NC(=O)[C@@H](O)C(C)C)ccc1S(=O)(=O)Nc1cccc(C(F)(F)F)c1 [Example 1.088] .
Result: ≤ 200 nM

Request: Any idea what IC50 was measured for CCOc1cc(NC(=O)c2ccncc2)ccc1S(=O)(=O)Nc1cccc(OC(F)(F)F)c1 [Example 1.366] ?
Result: ≤ 200 nM

* * *

Molecular target: human CXCR6 (Homo sapiens)
pIC50: −log10 of the molar value.
Observable: pIC50

Recorded results for 3 compounds are shown here.
>  <Compound>
Cc1cc(NC(=O)c2ccno2)ccc1S(=O)(=O)Nc1cccc(C(F)(F)F)c1 [Example 1.067]

>  <pIC50>
6.12 to 6.70

$$$$
>  <Compound>
Cn1nccc1C(=O)Nc1ccc(S(=O)(=O)Nc2cccc(C(F)(F)F)c2)c(Cl)c1 [Example 1.141]

>  <pIC50>
6.12 to 6.70

$$$$
>  <Compound>
Cn1nccc1C(=O)Nc1ccc(S(=O)(=O)Nc2cccc(OC(F)(F)F)c2)c(C#N)c1 [Example 1.289]

>  <pIC50>
5.70 to 6.12

$$$$

--- query ---
Request: What does the record list as pIC50 for CCOc1cc(NC(=O)[C@@H](N)C(C)CC)ccc1S(=O)(=O)Nc1cccc(OC(F)(F)F)c1 (stereo partly shown) [Example 1.243] ?
Result: ≥ 6.70
